system: Murine leukemia (L1210) cells; test: Cytostatic activity, L1210 cell proliferation; type: cell-based; conditions: mean ± SD of three experiments; highest concentration tested 250 µM; 2 days; read-out: Toxicity (IC50) L1210

{"compound": "CN[C@H](CC(C)C)C(=O)N[C@H]1C(=O)N[C@@H](CC(N)=O)C(=O)N[C@H]2C(=O)N[C@H]3C(=O)N[C@H](C(=O)N[C@H](C(=O)NCCNC(=O)CC(c4ccccc4)c4ccccc4)c4cc(O)cc(O)c4-c4cc3ccc4O)[C@H](O)c3ccc(c(Cl)c3)Oc3cc2cc(c3O[C@@H]2O[C@H](CO)[C@@H](O)[C@H](O)[C@H]2O[C@H]2C[C@](C)(N)[C@H](O)[C@H](C)O2)Oc2ccc(cc2Cl)[C@H]1O [Vanc-47]", "IC50": "≥ 250 µM"}
{"compound": "C#CCCC(=O)NCCCNC(=O)C1NC(=O)C2NC(=O)C(NC(=O)C3NC(=O)C(CC(N)=O)NC(=O)C(NC(=O)C(CC(C)C)NC)C(O)c4ccc(c(Cl)c4)Oc4cc3cc(c4OC3OC(CO)C(O)C(O)C3OC3CC(C)(N)C(O)C(C)O3)Oc3ccc(cc3Cl)C2O)c2ccc(O)c(c2)-c2c(O)cc(O)cc21 (stereo not drawn) [Vanc-B]", "IC50": "> 250 µM"}
{"compound": "CN[C@H](CC(C)C)C(=O)N[C@H]1C(=O)N[C@@H](CC(N)=O)C(=O)N[C@H]2C(=O)N[C@H]3C(=O)N[C@H](C(=O)N[C@H](C(=O)NCC(=O)Nc4ccc(C(F)(F)F)cc4)c4cc(O)cc(O)c4-c4cc3ccc4O)[C@H](O)c3ccc(c(Cl)c3)Oc3cc2cc(c3O[C@@H]2O[C@H](CO)[C@@H](O)[C@H](O)[C@H]2O[C@H]2C[C@](C)(N)[C@H](O)[C@H](C)O2)Oc2ccc(cc2Cl)[C@H]1O [Vanc-40]", "IC50": "> 250 µM"}
{"compound": "CN[C@H](CC(C)C)C(=O)N[C@H]1C(=O)N[C@@H](CC(N)=O)C(=O)N[C@H]2C(=O)N[C@H]3C(=O)N[C@H](C(=O)N[C@H](C(=O)NCC(=O)Nc4cccc(F)c4)c4cc(O)cc(O)c4-c4cc3ccc4O)[C@H](O)c3ccc(c(Cl)c3)Oc3cc2cc(c3O[C@@H]2O[C@H](CO)[C@@H](O)[C@H](O)[C@H]2O[C@H]2C[C@](C)(N)[C@H](O)[C@H](C)O2)Oc2ccc(cc2Cl)[C@H]1O [Vanc-10]", "IC50": "> 250 µM"}
{"compound": "C#Cc1ccc(NC(=O)CNC(=O)C2NC(=O)C3NC(=O)C(NC(=O)C4NC(=O)C(CC(N)=O)NC(=O)C(NC(=O)C(CC(C)C)NC)C(O)c5ccc(c(Cl)c5)Oc5cc4cc(c5OC4OC(CO)C(O)C(O)C4OC4CC(C)(N)C(O)C(C)O4)Oc4ccc(cc4Cl)C3O)c3ccc(O)c(c3)-c3c(O)cc(O)cc32)cc1 (stereo not drawn) [Vanc-N]", "IC50": "> 250 µM"}
{"compound": "CCCCC#Cc1ccc(NC(=O)CNC(=O)[C@H]2NC(=O)[C@H]3NC(=O)[C@H](NC(=O)[C@@H]4NC(=O)[C@H](CC(N)=O)NC(=O)[C@H](NC(=O)[C@@H](CC(C)C)NC)[C@H](O)c5ccc(c(Cl)c5)Oc5cc4cc(c5O[C@@H]4O[C@H](CO)[C@@H](O)[C@H](O)[C@H]4O[C@H]4C[C@](C)(N)[C@H](O)[C@H](C)O4)Oc4ccc(cc4Cl)[C@H]3O)c3ccc(O)c(c3)-c3c(O)cc(O)cc32)cc1 [Vanc-37]", "IC50": "14 µM"}

---

Test system: Murine leukemia (L1210) cells
Test: Cytostatic activity, L1210 cell proliferation
Type: cell-based
Conditions: mean ± SD of three experiments; highest concentration tested 250 µM; 2 days; read-out: Toxicity (IC50) L1210
Method: Murine leukemia (L1210), human T-lymphocyte (CEM) and the human cervix carcinoma (HeLa) cell line were suspended at 300,000–500,000 cells/mL of culture medium, and 100 μL of a cell suspension was added to 100 μL of an appropriate dilution of the test compounds in wells of 96-well microtiter plates. After incubation at 37°C for 2 (L1210), 3 (CEM), or 4 (HeLa) days, the cell number was determined using a Coulter counter. […]
pIC50: −log10 of the molar value.
experimental.endpoint: pIC50

{"compound": "C#Cc1ccc2cc(C(=O)NCCCNC(=O)[C@H]3NC(=O)[C@H]4NC(=O)[C@H](NC(=O)[C@@H]5NC(=O)[C@H](CC(N)=O)NC(=O)[C@H](NC(=O)[C@@H](CC(C)C)NC)[C@H](O)c6ccc(c(Cl)c6)Oc6cc5cc(c6O[C@@H]5O[C@H](CO)[C@@H](O)[C@H](O)[C@H]5O[C@H]5C[C@](C)(N)[C@H](O)[C@H](C)O5)Oc5ccc(cc5Cl)[C@H]4O)c4ccc(O)c(c4)-c4c(O)cc(O)cc43)ccc2c1", "value.measured": 4.11}
{"compound": "CN[C@H](CC(C)C)C(=O)N[C@H]1C(=O)N[C@@H](CC(N)=O)C(=O)N[C@H]2C(=O)N[C@H]3C(=O)N[C@H](C(=O)N[C@H](C(=O)NCC(=O)Nc4ccc(OC)c(OC)c4)c4cc(O)cc(O)c4-c4cc3ccc4O)[C@H](O)c3ccc(c(Cl)c3)Oc3cc2cc(c3O[C@@H]2O[C@H](CO)[C@@H](O)[C@H](O)[C@H]2O[C@H]2C[C@](C)(N)[C@H](O)[C@H](C)O2)Oc2ccc(cc2Cl)[C@H]1O", "value.measured": "< 3.60"}
{"compound": "CNC(CC(C)C)C(=O)NC1C(=O)NC(CC(N)=O)C(=O)NC2C(=O)NC3C(=O)NC(C(=O)NC(C(=O)NCCCNC(=O)c4cc5cc(F)ccc5[nH]4)c4cc(O)cc(O)c4-c4cc3ccc4O)C(O)c3ccc(c(Cl)c3)Oc3cc2cc(c3OC2OC(CO)C(O)C(O)C2OC2CC(C)(N)C(O)C(C)O2)Oc2ccc(cc2Cl)C1O (stereo not drawn)", "value.measured": "< 3.60"}

---

Measured MIC by item
Test system: S. aureus VISA/HIP5827
Test: MIC, broth microdilution, vancomycin-intermediate S. aureus VISA HIP5827
Format: cell-based, Staphylococcus aureus
Settings: Staphylococcus aureus VISA/HIP5827; read-out: MIC
Protocol: The minimum inhibitory concentration (MIC) was determined using the broth microdilution method according to the antimicrobial susceptibility testing standards of the clinical and laboratory standards institute ([Clinical and Laboratory Standards Institute [CLSI], 2012]). Ultrapure water and non-inoculated broth were used as controls. In one case, a final concentration of 10 μM vancomycin was included with the vancomycin analog or control antibiotic.

{"molecule": "CNC(CC(C)C)C(=O)NC1C(=O)NC(CC(N)=O)C(=O)NC2C(=O)NC3C(=O)NC(C(=O)NC(C(=O)NCC(=O)Nc4ccc(C#CC5CC5)cc4)c4cc(O)cc(O)c4-c4cc3ccc4O)C(O)c3ccc(c(Cl)c3)Oc3cc2cc(c3OC2OC(CO)C(O)C(O)C2OC2CC(C)(N)C(O)C(C)O2)Oc2ccc(cc2Cl)C1O (stereo not shown)", "readout.units": "µM", "MIC": 0.78}
{"molecule": "CN[C@H](CC(C)C)C(=O)N[C@H]1C(=O)N[C@@H](CC(N)=O)C(=O)N[C@H]2C(=O)N[C@H]3C(=O)N[C@H](C(=O)N[C@H](C(=O)NCC(=O)Nc4c(C)cc(C)cc4C)c4cc(O)cc(O)c4-c4cc3ccc4O)[C@H](O)c3ccc(c(Cl)c3)Oc3cc2cc(c3O[C@@H]2O[C@H](CO)[C@@H](O)[C@H](O)[C@H]2O[C@H]2C[C@](C)(N)[C@H](O)[C@H](C)O2)Oc2ccc(cc2Cl)[C@H]1O", "readout.units": "µM", "MIC": 1.56}
{"molecule": "CN[C@H](CC(C)C)C(=O)N[C@H]1C(=O)N[C@@H](CC(N)=O)C(=O)N[C@H]2C(=O)N[C@H]3C(=O)N[C@H](C(=O)N[C@H](C(=O)NCC(=O)Nc4ccc(N5CCOCC5)cc4)c4cc(O)cc(O)c4-c4cc3ccc4O)[C@H](O)c3ccc(c(Cl)c3)Oc3cc2cc(c3O[C@@H]2O[C@H](CO)[C@@H](O)[C@H](O)[C@H]2O[C@H]2C[C@](C)(N)[C@H](O)[C@H](C)O2)Oc2ccc(cc2Cl)[C@H]1O", "readout.units": "µM", "MIC": 1.56}
{"molecule": "CN[C@H](CC(C)C)C(=O)N[C@H]1C(=O)N[C@@H](CC(N)=O)C(=O)N[C@H]2C(=O)N[C@H]3C(=O)N[C@H](C(=O)N[C@H](C(=O)NCC(=O)Nc4cc(C)ccc4O)c4cc(O)cc(O)c4-c4cc3ccc4O)[C@H](O)c3ccc(c(Cl)c3)Oc3cc2cc(c3O[C@@H]2O[C@H](CO)[C@@H](O)[C@H](O)[C@H]2O[C@H]2C[C@](C)(N)[C@H](O)[C@H](C)O2)Oc2ccc(cc2Cl)[C@H]1O", "readout.units": "µM", "MIC": 0.78}
{"molecule": "CNC(CC(C)C)C(=O)NC1C(=O)NC(CC(N)=O)C(=O)NC2C(=O)NC3C(=O)NC(C(=O)NC(C(=O)NCC(=O)Nc4ccc(C=Cc5ccc(N)cc5)cc4)c4cc(O)cc(O)c4-c4cc3ccc4O)C(O)c3ccc(c(Cl)c3)Oc3cc2cc(c3OC2OC(CO)C(O)C(O)C2OC2CC(C)(N)C(O)C(C)O2)Oc2ccc(cc2Cl)C1O (stereo not shown)", "readout.units": "µM", "MIC": 1.56}
{"molecule": "CCCCOc1ccc(C(=O)NCCCNC(=O)C2NC(=O)C3NC(=O)C(NC(=O)C4NC(=O)C(CC(N)=O)NC(=O)C(NC(=O)C(CC(C)C)NC)C(O)c5ccc(c(Cl)c5)Oc5cc4cc(c5OC4OC(CO)C(O)C(O)C4OC4CC(C)(N)C(O)C(C)O4)Oc4ccc(cc4Cl)C3O)c3ccc(O)c(c3)-c3c(O)cc(O)cc32)cc1 (stereo not shown)", "readout.units": "µM", "MIC": 0.78}
{"molecule": "CNC(CC(C)C)C(=O)NC1C(=O)NC(CC(N)=O)C(=O)NC2C(=O)NC3C(=O)NC(C(=O)NC(C(=O)NCC(=O)Nc4ccc5c(c4)C(=O)c4ccccc4-5)c4cc(O)cc(O)c4-c4cc3ccc4O)C(O)c3ccc(c(Cl)c3)Oc3cc2cc(c3OC2OC(CO)C(O)C(O)C2OC2CC(C)(N)C(O)C(C)O2)Oc2ccc(cc2Cl)C1O (stereo not shown)", "readout.units": "µM", "MIC": 0.78}
